Each recorded value in this set is attributed to patent US7998924B2.

assay procedure: Peptide solubility in PBS buffer at 1 mg/mL
Format: physicochemical
settings: pH 7.4, 1 mg/mL
Positions of bridges follow the written chain, without caps; N, C: chain ends. Residues, ends and D or L forms follow the SMILES beside them.
measurement name: solubility

# input Recorded solubility of CSCC[C@H](NC(=O)[C@H](Cc1ccc(O)cc1)NC(=O)[C@@H]1CSSC[C@H](NC(=O)[C@H](Cc2ccccc2)NC(=O)CN)C(=O)N[C@@H](CC(=O)O)C(=O)NCC(=O)N[C@@H](Cc2ccccc2)C(=O)N[C@@H](Cc2ccc(O)cc2)C(=O)N[C@@H](C)C(=O)N1)C(=O)N[C@@H](CC(=O)O)C(=O)N[C@H](C(=O)O)C(C)C [Peptide 7] (H-GFCDGFYACYMDV-OH; disulfide 3-9) , please.
# output > 1000 µg/mL

###

system: HER2 receptor (Homo sapiens)
Construct: Recombinant purified HER2 receptor composed of the ectodomain of HER2 fused to the Fc of human IgG; purchased Xcyte Therapeutics, Seattle, Wash; (provided by Dr. Che Law; a gift, not a catalogue product)
Sequence (P04626 23-652 limits assumed): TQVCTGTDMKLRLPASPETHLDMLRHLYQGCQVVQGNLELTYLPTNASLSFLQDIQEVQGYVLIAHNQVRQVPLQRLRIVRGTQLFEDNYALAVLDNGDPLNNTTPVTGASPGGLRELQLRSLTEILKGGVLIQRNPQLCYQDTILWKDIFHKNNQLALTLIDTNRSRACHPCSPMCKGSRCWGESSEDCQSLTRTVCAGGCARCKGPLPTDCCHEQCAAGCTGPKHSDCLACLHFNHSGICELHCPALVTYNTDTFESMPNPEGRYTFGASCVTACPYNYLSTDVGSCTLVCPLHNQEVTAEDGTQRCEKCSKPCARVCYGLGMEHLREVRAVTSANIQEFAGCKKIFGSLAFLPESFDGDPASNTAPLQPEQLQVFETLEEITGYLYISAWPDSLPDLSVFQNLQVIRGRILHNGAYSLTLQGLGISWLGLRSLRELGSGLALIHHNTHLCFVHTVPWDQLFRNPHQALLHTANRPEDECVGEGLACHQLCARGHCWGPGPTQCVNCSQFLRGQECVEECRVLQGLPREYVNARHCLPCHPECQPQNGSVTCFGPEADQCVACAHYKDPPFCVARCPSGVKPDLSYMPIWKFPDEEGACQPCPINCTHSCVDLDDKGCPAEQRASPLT
assay procedure: Biacore (surface plasmon resonance) binding of peptides to immobilized HER2
settings: Biacore, immobilized HER2, 25° C.; read-out: binding to HER2 kon
Positions of bridges follow the written chain, without caps; N, C: chain ends. Residues, ends and D or L forms follow the SMILES beside them.
measurement name: kon (M⁻¹ s⁻¹)
Number in M⁻¹ s⁻¹, nothing else.

# input Recorded kon of CC(C)[C@H](NC(=O)[C@H](CC(=O)O)NC(=O)[C@H](CCCCN)NC(=O)[C@H](Cc1ccc(O)cc1)NC(=O)[C@@H]1CSSC[C@H](NC(=O)[C@@H](N)Cc2ccccc2)C(=O)N[C@@H](CC(=O)O)C(=O)NCC(=O)N[C@@H](Cc2ccccc2)C(=O)N[C@@H](Cc2ccc(O)cc2)C(=O)N[C@@H](C)C(=O)N1)C(=O)O [Peptide 6] (H-FCDGFYACYKDV-OH; disulfide 2-8; N-terminus assumed) , please.
# output 219

###

assay procedure: Peptide solubility in PBS buffer at 1 mg/mL
Format: physicochemical
settings: pH 7.4, 1 mg/mL
Positions of bridges follow the written chain, without caps; N, C: chain ends. Residues, ends and D or L forms follow the SMILES beside them.
Hi there, I'd appreciate the recorded solubility for every entry that follows.

# input Recorded solubility of CSCC[C@H](NC(=O)[C@H](Cc1ccc(O)cc1)NC(=O)[C@H](CS)NC(=O)[C@H](C)NC(=O)[C@H](Cc1ccc(O)cc1)NC(=O)[C@H](Cc1ccccc1)NC(=O)CNC(=O)[C@H](CC(=O)O)NC(=O)[C@H](CS)NC(=O)[C@@H](N)Cc1ccccc1)C(=O)N[C@@H](CC(=O)O)C(=O)N[C@H](C(=O)O)C(C)C [Peptide 9] , please.
# output > 1000 µg/mL

# input Recorded solubility of CSCC[C@H](NC(=O)[C@H](Cc1ccc(O)cc1)NC(=O)[C@@H]1CSSC[C@H](NC(=O)[C@@H](N)Cc2ccccc2)C(=O)N[C@@H](CC(=O)O)C(=O)NCC(=O)N[C@@H](Cc2ccccc2)C(=O)N[C@@H](Cc2ccc(O)cc2)C(=O)N[C@@H](C)C(=O)N1)C(=O)N[C@@H](CC(=O)O)C(=O)N[C@H](C(=O)N[C@@H](CCCCN)C(N)=O)C(C)C [Peptide 5] (H-FCDGFYACYMDVK-NH2; disulfide 2-8) , please.
# output < 1000 µg/mL

# input Recorded solubility of CSCC[C@H](NC(=O)[C@@H](Cc1ccc(O)cc1)NC(=O)[C@@H]1CSSC[C@H](NC(=O)[C@H](N)Cc2ccccc2)C(=O)N[C@@H](CC(=O)O)C(=O)NCC(=O)N[C@@H](Cc2ccccc2)C(=O)N[C@@H](Cc2ccc(O)cc2)C(=O)N[C@@H](C)C(=O)N1)C(=O)N[C@@H](CC(=O)O)C(=O)N[C@H](C(N)=O)C(C)C [Peptide 4] , please.
# output > 1000 µg/mL
